# Measurement notes: Toxicity liver stage against HepG2, at 10uM
# Format: cell-based
# Parameters: test concentration 10 uM, cell line HepG2-A16-CD81EGFP
# Stated conditions: human, HepG2-A16-CD81EGFP cells; read-out: INHIBITION
Measured parameter: cytotoxicity at 10 µM (%)
Write down the numeric answer in % and omit the unit.

[
  {
    "Molecule": "CCCNC(=O)Cn1c(-n2nc(C)cc2C)nc(CCC)cc1=O",
    "Value unit": "%",
    "Quantitative readout": 8.94
  }
]

Next molecule, please.
The reported value for CCCN1CCC(CNC(=O)N2CCCC2c2c(C)n[nH]c2C)CC1 (stereo unspecified) in terms of cytotoxicity at 10 µM is -0.686
